Experiment: Displacement of [3H]DALKD from bradykinin receptor in rat brain membranes by competition assay at pH 7.4
Type: cell membranes, Membrane
experimental_endpoint: IC50
Answer with the value and then the unit.

Data request: Fill in the blank: the reported IC50 of CC[C@H](C)[C@H](NC(=O)[C@H](CCCNC(=N)N)NC(=O)[C@H](CC(C)C)NC(=O)[C@@H](N)Cc1ccccc1)C(=O)N[C@@H](CCCNC(=N)N)C(=O)N1CCC[C@H]1C(=O)N[C@@H](CCCCN)C(=O)O is ____.
Data returned: 190 nM

====

Form field: pIC50 (one value per entry).
Assay: Displacement of [3H]DALKD from bradykinin receptor in rat brain membranes by competition assay
Assay type: cell membranes, Membrane
Note: pIC50 values are expressed as the negative base-10 logarithm of concentration in M.

>>> df
      substance  experimental_endpoint  meas_value
0  H-FLRAIRP-OH                  pIC50        6.13

Data request: Fill in the blank: the reported pIC50 of H-FLRIRRPK-OH is ____.
Data returned: 7.13

Data request: Fill in the blank: the reported pIC50 of H-FLARIRPK-OH is ____.
Data returned: 6.59

====

Test: Displacement of [3H]DALKD from bradykinin receptor in rat brain membranes by competition assay at pH 7.4
Type: cell membranes, Membrane
experimental_endpoint: IC50 (nM)
Give the quantity in nM, number only.

Data request: Fill in the blank: the reported IC50 of H-LRIRPKLK-OH is ____.
Data returned: 68

====

Assay: Displacement of [3H]DALKD from bradykinin receptor in rat brain membranes by competition assay at pH 6.8
Type: cell membranes, Membrane
experimental_endpoint: pIC50
No unit in the answer, only the number.

>>> print(df.to_string())
         substance  meas_value
0  H-GFLRIRPKLK-OH        7.58

Data request: Fill in the blank: the reported pIC50 of H-GGFLRIRPKLK-OH is ____.
Data returned: 7.39

Data request: Fill in the blank: the reported pIC50 of H-GFLRIR-OH is ____.
Data returned: 6.56

====

Assay: Displacement of [3H]DALKD from bradykinin receptor in rat brain membranes by competition assay at pH 7.4
Type: cell membranes, Membrane
Returns Condition met if the recorded pIC50 is greater than or equal to 7, and Condition not met otherwise.

Would you please look over these solved cases?
         substance        class_label
0  H-GFLRIRPKLK-OH      Condition met
1      H-LRIRPK-OH  Condition not met

# input for lookup
Data request: State whether the measured pIC50 reaches 7, counting equality as reaching it, for H-GFLRIR-OH
Data returned: Condition not met

====

Assay: Displacement of [3H]DALKD from bradykinin receptor in rat brain membranes by competition assay
Format: cell membranes, Membrane
experimental_endpoint: pIC50
No unit in the answer, only the number.

>>> df
        substance  experimental_endpoint  meas_value
0   H-FLRIRRPK-OH                  pIC50        7.13
1  H-LARIRPKLK-OH                  pIC50        6.99

Data request: Fill in the blank: the reported pIC50 of H-LRAIRPKLK-OH is ____.
Data returned: 6.91

Data request: Fill in the blank: the reported pIC50 of H-FLARIRPK-OH is ____.
Data returned: 6.58

Data request: Fill in the blank: the reported pIC50 of H-FLRAIRP-OH is ____.
Data returned: 6.13

====

Assay: Retention time of the compound by HPLC method
Type: physicochemical
Binary label based on Retention_time with cut-off 10 min: below gives Condition met, not below gives Condition not met.

Would you please look over these solved cases?
>>> print(df.to_string())
       substance        class_label
0    H-LRIRPK-OH      Condition met
1  H-FLARIRPK-OH  Condition not met

Data request: Is it true that Retention_time reported for H-GFLRIRPKLK-OH is less than 10 min?
Data returned: Condition not met

Data request: Is it true that Retention_time reported for H-GFLRIR-OH is less than 10 min?
Data returned: Condition met

Data request: Is it true that Retention_time reported for H-LARIRPKLK-OH is less than 10 min?
Data returned: Condition met

Data request: Is it true that Retention_time reported for H-GFLRIRPK-OH is less than 10 min?
Data returned: Condition met

Data request: Is it true that Retention_time reported for H-LRAIRPKLK-OH is less than 10 min?
Data returned: Condition met

====

Form field: pIC50 (one value per entry).
Assay: Displacement of [3H]DALKD from bradykinin receptor in rat brain membranes by competition assay at pH 6.8
Format: cell membranes, Membrane
No unit in the answer, only the number.

       substance  experimental_endpoint  meas_value
0  H-LRIRPKLK-OH                  pIC50        7.52
1    H-LRIRPK-OH                  pIC50        6.71

Lab note: next substance to report on.
Data request: Fill in the blank: the reported pIC50 of H-FLRIRPKLK-OH is ____.
Data returned: 7.2

====

Test: Displacement of [3H]DALKD from bradykinin receptor in rat brain membranes by competition assay at pH 7.4
Format: cell membranes, Membrane
Form field: pIC50 (one value per entry).
No unit in the answer, only the number.

Worked examples follow.
       substance  meas_value
0  H-LRIRPKLK-OH        7.17
1  H-GFLRIRPK-OH        6.88

Lab note: next substance to report on.
Data request: Fill in the blank: the reported pIC50 of H-FLRIRPKLK-OH is ____.
Data returned: 6.95

====

Form field: Retention_time (one value per entry).
Assay: Retention time of the compound by HPLC method
Assay type: physicochemical
Give the quantity in min, number only.

Worked examples follow.
>>> df
        substance  meas_value
0    H-FLRAIRP-OH        10.3
1  H-FLRIRPKLK-OH         9.7

Lab note: next substance to report on.
Data request: Fill in the blank: the reported Retention_time of H-GGFLRIRPKLK-OH is ____.
Data returned: 10.4
